The measurements presented in this section are drawn from the METLIN SMRT retention time set (Domingo-Almenara et al. 2019).

Test: gradient 5% acetonitrile 3 min, to 50% in 2 min, to 85% in 15 min, held 3 min, 100 µL/min
Details: column: Zorbax Extend-C18 2.1 x 50 mm; eluents: water / acetonitrile, 0.1% formic acid
assay_endpoint: RP-LC retention time (s)
Numeric only. Scale: s

Observe how each entry below is paired with its result.
compound	RP-LC retention time, s
O=C(Cn1nc2c(Oc3ccccc3)nccn2c1=O)Nc1cc(C(F)(F)F)ccc1Cl	960
Clc1ccc(-c2nc(-c3ccc(-n4ccnc4)nc3)no2)cc1	797
O=C(NCCc1ccccc1)Nc1cnc2c(c1)CCC2	536
COc1cc(CN2C[C@@H](CO)[C@H](N(C)C)C2)ccc1OC(C)C	554
O=C1NC2(CCN(C(=O)c3ccc4c(c3)OCO4)CC2)N=C1c1cccc(Cl)c1	835
C[C@H]1CN(C(=O)NCc2ccccc2)C[C@@H]1c1nc(-c2cccnc2)no1	730
CCN1C(=O)c2ccccc2Oc2ccc(C(=O)NC3CCCCCC3)cc21	1050
COC(=O)C1=CN(c2cccc(C#N)c2)c2cc(F)ccc2S1(=O)=O	763
O=C(O)c1cc(NS(=O)(=O)c2ccccc2)ccc1N1CCCC(CN2CCCC2)C1 (stereo not given)	927
O=C(CN1C(=O)c2ccccc2C1=O)Nc1nnc(C2COc3ccccc3O2)o1 (stereo not given)	714

Query :: For the compound COc1ccc(-c2csc(NC(=O)CS(=O)(=O)c3ccc(Cl)cc3)n2)cc1OC , what RP-LC retention time is on record?
Result :: 926

Query :: Another: CN1C[C@@H](CO)C=C2c3cccc4[nH]cc(c34)C[C@@H]21
Result :: 607

Query :: Another: Cc1cc2nn(CC(=O)NC3CCCCC3)c(=O)n2c(Nc2ccc(F)cc2)n1
Result :: 909

###

Assay: gradient 5% acetonitrile 3 min, to 50% in 2 min, to 85% in 15 min, held 3 min, 100 µL/min
Details: column: Zorbax Extend-C18 2.1 x 50 mm; eluents: water / acetonitrile, 0.1% formic acid
# cutoff 1000 s applies to RP-LC retention time; >= gives T, < gives F

Below are worked cases with known answers.
molecule	answer_label
Cn1c(C(=O)NCc2ccccc2)cc2sc(Cl)cc21	T
Cc1cc(N2CCN(C)CC2)nc2ccc(NC(=O)Nc3ccc4c(c3)OCCO4)cc12	F
CCc1nc2cc(-c3noc(-c4ccc(OC)c(F)c4)n3)ccc2o1	T
O=C(NCc1ccc(Cl)cc1)C1CCCN(S(=O)(=O)c2c[nH]c(C(=O)N3CCCC3)c2)C1 (centres undefined)	F

Could you now consider this next molecule?
Query :: Kindly determine if RP-LC retention time recorded for CCCCOc1ccc(C(=O)N2CCN(c3nc4ccncc4n(C)c3=O)CC2)cc1 is above or exactly 1000 s.
Result :: F

###

Experiment: gradient 5% acetonitrile 3 min, to 50% in 2 min, to 85% in 15 min, held 3 min, 100 µL/min
Details: column: Zorbax Extend-C18 2.1 x 50 mm; eluents: water / acetonitrile, 0.1% formic acid
# cutoff 800 s applies to RP-LC retention time; >= gives Satisfied, < gives Not satisfied

Below are worked cases with known answers.
molecule	answer_label
O=C(NCc1ccccc1)C1CCN(S(=O)(=O)c2cc(-c3noc(C4CCC4)n3)cs2)CC1	Satisfied
CCn1c(=O)c(N2CCC(NC(=O)NCc3ccccc3)CC2)nc2ccccc21	Satisfied
COc1ccc(NC(=O)Nc2ccc3nc(C)n(-c4ccccc4)c(=O)c3c2)cc1OC	Not satisfied

Query :: Kindly determine if RP-LC retention time recorded for CC1CC(C)CN(S(=O)(=O)c2cccc(-c3cn4cc(Cl)ccc4n3)c2)C1 (centres undefined) is above or exactly 800 s.
Result :: Satisfied

Query :: Another: CCc1nnc(NC(=O)CSc2nc3ccccc3[nH]2)s1
Result :: Not satisfied

###

Assay: gradient 5% acetonitrile 3 min, to 50% in 2 min, to 85% in 15 min, held 3 min, 100 µL/min
Conditions: column: Zorbax Extend-C18 2.1 x 50 mm; eluents: water / acetonitrile, 0.1% formic acid
RP-LC retention time reference
Numeric only. Scale: s

Observe how each entry below is paired with its result.
structure	endpoint_unit	RP-LC retention time
C=CCn1nc(-c2nc(-c3cccc(Cl)c3)no2)ccc1=O	s	1060
Cc1nc(-c2csc(S(=O)(=O)N3CCC(C(=O)Nc4cccc(F)c4)CC3)c2)no1	s	925
CCc1nc(OCC(=O)Nc2ccccc2CC)c2ccccc2n1	s	830

Query :: For the molecule CCn1c(=O)c(N2CCN(S(=O)(=O)c3ccc(Cl)s3)CC2)nc2ccncc21 , what RP-LC retention time is on record?
Result :: 739

Query :: Another: CCn1c(N2CCN(C(=O)Nc3cccc(C(C)=O)c3)CC2)nc2ccccc21
Result :: 576

###

Experiment: gradient 5% acetonitrile 3 min, to 50% in 2 min, to 85% in 15 min, held 3 min, 100 µL/min
Details: column: Zorbax Extend-C18 2.1 x 50 mm; eluents: water / acetonitrile, 0.1% formic acid
RP-LC retention time reference
Numeric only. Scale: s

molecule	assay_endpoint	value
Cn1nccc1-c1cccc(-c2noc(-c3cccc(F)c3)n2)c1	RP-LC retention time	1150
O=C(NCc1cccc(Br)c1)C1CCCN(c2cnc3nccnc3c2)C1 (stereo not given)	RP-LC retention time	739
COc1ccc(-c2cc(C(=O)N3CCCC3c3c(C)noc3C)on2)cc1 (stereo not given)	RP-LC retention time	856
O=C(Cn1cccc1-c1nnc(-c2ccccc2)o1)Nc1ccc(Cl)cc1	RP-LC retention time	1030

Please find the next molecule below.
Query :: For the molecule CN(C)C[C@@H]1CN(c2ccccn2)C[C@H]1NC(=O)c1ccc2ccccc2n1 , what RP-LC retention time is on record?
Result :: 567

###

Test: gradient 5% acetonitrile 3 min, to 50% in 2 min, to 85% in 15 min, held 3 min, 100 µL/min
Details: column: Zorbax Extend-C18 2.1 x 50 mm; eluents: water / acetonitrile, 0.1% formic acid
RP-LC retention time reference
Numeric only. Scale: s

Observe how each entry below is paired with its result.
compound	RP-LC retention time [s]
CCOc1ccc2nc(C(=O)NCc3ccc(C(F)(F)F)cc3)cn2n1	947
CC1CCCCN1CCNC(=O)Cn1c(=O)c2cccn2c2ccc(F)cc21 (stereo not given)	612
COc1cccc(-c2noc(CN3C(=O)C(C)Oc4ccccc43)n2)c1 (stereo not given)	1060
Cc1ccc(-n2c(N3CCCC(C(=O)NCc4ccc(Cl)cc4)C3)nc3ccsc3c2=O)cc1 (stereo not given)	956
O=C(NCc1ccc2c(c1)OCO2)NCc1ccc2c(c1)OCO2	692

Please find the next compound below.
Query :: For the compound Cc1nnsc1C(=O)Nc1nnc(Cc2ccc3c(c2)OCO3)o1 , what RP-LC retention time is on record?
Result :: 740

###

Experiment: gradient 5% acetonitrile 3 min, to 50% in 2 min, to 85% in 15 min, held 3 min, 100 µL/min
Settings: column: Zorbax Extend-C18 2.1 x 50 mm; eluents: water / acetonitrile, 0.1% formic acid
RP-LC retention time reference
Numeric only. Scale: s

Observe how each entry below is paired with its result.
compound	value
Cc1ccc(CNC(=O)c2cc3n(n2)CC(C)(C(=O)NCc2ccc(F)cc2)N(C)C3=O)cc1 (centres undefined)	741
O=C(Cc1ccccc1Cl)NC1CCN(c2cc(-c3ccccc3)[nH]n2)C1 (centres undefined)	721
Cc1oc(-c2ccccc2)nc1CN1C(=O)C(O)(c2cccc(F)c2)c2ccccc21 (centres undefined)	1100
COc1ccc(Cn2c(C(C)C)nc3sc4ccccc4c(=O)c3c2=O)cc1	975
O=C(NC1CCCCC1)C1CCCN(C(=O)c2ccc(F)c(F)c2)C1 (centres undefined)	825
CCOC(=O)C1CCN(c2cc3c(cc2NC(=O)C(C)(C)C)n(C)c(=O)c(=O)n3C)CC1	844

Query :: For the compound COc1cccc(-c2nc(C3CCN(S(=O)(=O)c4ccccc4)CC3)no2)c1 , what RP-LC retention time is on record?
Result :: 1070

Query :: Another: c1ccc(CNc2c(-c3ccccc3)nc3ncccn23)cc1
Result :: 709

Query :: Another: O=C(CS(=O)Cc1cnn(-c2ccccc2)c1-n1cccc1)NCCc1ccc(Cl)cc1 (centres undefined)
Result :: 892

###

Assay: gradient 5% acetonitrile 3 min, to 50% in 2 min, to 85% in 15 min, held 3 min, 100 µL/min
Conditions: column: Zorbax Extend-C18 2.1 x 50 mm; eluents: water / acetonitrile, 0.1% formic acid
assay_endpoint: RP-LC retention time (s)
Numeric only. Scale: s

molecule	endpoint_unit	RP-LC retention time
CCc1ccc2[nH]c3c(c(=O)c2c1)CN(CC(=O)Nc1cccc(C#N)c1)CC3	s	626
COc1ccc(C2(C(=O)N3CCC4(CC3)CC(C)(O)CCO4)CC2)cc1 (stereo not given)	s	707
CC(C(=O)N1CCN(c2ccccn2)CC1)C1CCN(C(=O)c2cc3cc(Cl)ccc3[nH]2)CC1 (stereo not given)	s	675
CC1CCC2(CC1)N=C(N1CCN(c3ncccn3)CC1)NC(=O)C2C#N (stereo not given)	s	649
N#Cc1cc2c(nc1SCC(=O)N1CCOCC1)CCCCC2	s	891
O=C(c1ccccc1Cl)N1CCCC(c2nnc(-c3cccs3)o2)C1 (stereo not given)	s	775
CCN1C(=O)C2CCCCN2c2ccc(C(=O)NCc3ccccc3)cc21 (stereo not given)	s	908
Cc1cc(C)cc(NC(=O)N2CCC(N3CCN(Cc4cccc(F)c4)C(=O)C3=O)CC2)c1	s	800

Query :: For the molecule CN(c1nccn2c(=O)n(CC(=O)Nc3ccc(F)cc3F)nc12)C1CCCCC1 , what RP-LC retention time is on record?
Result :: 902

Query :: Another: Cc1cc(C)cc(NC(=O)Cn2cccc2-c2nnc(C3CCC3)o2)c1
Result :: 920

Query :: Another: CCCn1cc(C(=O)NC(C)CC)c2nn(-c3ccccc3)c(=O)c-2c1 (stereo not given)
Result :: 880

Query :: Another: CC(C)c1ccc(S(=O)(=O)N(CC(=O)N2CCNCC2)CC(C)c2ccccc2)cc1 (stereo not given)
Result :: 772

Query :: Another: CCN1CCN(c2cc(C)c3cc(NC(=O)/C=C/c4ccc(OCCC(C)C)cc4)ccc3n2)CC1
Result :: 747

Query :: Another: CCn1nc(CNC(=O)c2cccs2)c2ccccc21
Result :: 798
